# experimental-protocol: aqueous kinetic solubility
# Format: physicochemical
# condition-label: PBS aqueous buffer
test-readout: solubility kinetic (µg/mL)
State just the number; it will be interpreted in µg/mL.

Prompt: Given the compound CN1C(=O)c2ccccc2[S@+]([O-])c2ccc(C(=O)NCCc3cccs3)cc21 , what is its reported solubility kinetic?
Completion: 46.5

Where do the numbers come from? From paper PMC4315423.
